# targetOrSystem: T1, recombinant DLL3 ectodomain (rhDLL3-Fc) (human, UniProt Q9NYJ7 27-492, biotinylated (NHS-LC-LC-biotin) in the BLI and SPR assays)
# T1 construct: also called rDLL3-Fc; recombinant human DLL3 (rDLL3); not shown: Fc part
# T1 sequence: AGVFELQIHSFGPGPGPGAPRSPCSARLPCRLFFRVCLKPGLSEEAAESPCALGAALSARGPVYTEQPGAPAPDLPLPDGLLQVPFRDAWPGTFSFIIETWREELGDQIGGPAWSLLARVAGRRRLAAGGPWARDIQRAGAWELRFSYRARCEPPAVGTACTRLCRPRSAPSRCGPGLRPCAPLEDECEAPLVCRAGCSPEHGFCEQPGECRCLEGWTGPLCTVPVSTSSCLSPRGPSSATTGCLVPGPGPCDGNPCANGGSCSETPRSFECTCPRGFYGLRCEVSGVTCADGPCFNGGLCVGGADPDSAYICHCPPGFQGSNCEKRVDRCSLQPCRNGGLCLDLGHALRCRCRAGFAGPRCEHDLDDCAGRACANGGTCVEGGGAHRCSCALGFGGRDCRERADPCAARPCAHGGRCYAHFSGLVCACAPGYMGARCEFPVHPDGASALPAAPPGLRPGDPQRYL
# assayProcedure: SPR (Biacore), biotinylated rhDLL3-Fc on SA chip
Bridge positions count the residues as written; N and C are the ends. Primed or numbered codes have the meaning given here. Ttds″ = trioxatridecan-succinamic acid linker
propertyLabel: pKd
Value format note: pKd is -log10 of concentration (mol/L); just state the number.

Ac-AETVEFWWCNGNSENWTCTWGG-{Ttds″-K(PEG4-PEG3)} (disulfide 9-18 (inferred); also: dimer linked via PEG4-DBCO, also called PspSP1488) [PepSP1488] | 8.59
Ac-AETVEFWWCNGNSENWTCTWGG-{Ttds-K(PEG4-DBCO)-NH2} (disulfide 9-18 (inferred), also called PspSP1462) [PepSP1462] | 8.20
Ac-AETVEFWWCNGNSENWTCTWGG-{Ttds″-K(PEG3)} (disulfide 9-18 (inferred); also: dimer of two copies, carries PEG4-DBCO, also called PspSP1487) [PepSP1487] | 8.26

Would you kindly look at the next entry?
Item: Ac-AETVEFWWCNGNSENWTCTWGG-{Ttds″-K(Ttds-Ttds-PEG3)} (disulfide 9-18 (inferred); also: dimer linked via PEG4-DBCO, also called PspSP1489) [PepSP1489] | pKd: 8.48
